- Protocol Notes: qHTS Assay for Inhibitors of Fructose-1,6-bisphosphate Aldolase from Giardia Lamblia: Coupling assay counterscreen; further: on the % scale 0 is the no-effect control and ±100 the full control effect
- Condition Info: coupling enzyme system counterscreen, AmpLite Red fluorescence; at 58.2 µM (top of the series)
Screen size: about 290,000 compounds; about 2,000 (0.69%) were called active. This is one part of a sample in which actives are shown more often than they occur.
Readout Kind: activity change, negative = inhibition (%)
Answer with a number only, understood to be in %.

Query: activity change, negative = inhibition; subject: CCOC(=O)c1c(C)[nH]c2c1-c1ccccc1C(=O)C2=O -46.9

One more compound: Cc1ccc(C(=O)N(CC(=O)NC2CCCC2)c2ccc(F)cc2)s1 -3.12

How about O=c1c2cc(Br)ccc2nc(-c2cccc(Cl)c2)n1O ? -2.84

Another: COc1ccccc1S(=O)(=O)c1c(C)cc(C)[nH]c1=O 0.55

Next compound: COc1ccc(/C=N/Nc2nc3ccccc3c(=O)[nH]2)cc1 0.889

Please give the result for Cc1ccc(Cn2c(C)c3cnn(CC(=O)NCc4ccccn4)c(=O)c3c2C)cc1 too. 0.293

And then CCSc1nsc(NC(=O)Nc2cccc(C(C)=O)c2)n1 , what is it? -3.71

Then this compound: CCOC(=O)c1cc2c(ccn2C)n1CC(=O)N1CCC(C)CC1 -41.2

Please answer likewise for Cc1cc2c(c(=O)n1Cc1ccccc1)C1O[C@](CCCCN3C(=O)c4ccccc4C3=O)(Cc3ccccc31)O2 -1.41

Entry to check: C=CC(C1=CC(=O)C=CC1=O)c1ccc(O)cc1 (centres undefined) -27

Further, for C=C(C(C)=O)C(O)c1cccs1 (centres undefined) ? 2.11

Also check Oc1ccc2ccccc2c1N=Nc1nccs1 -6.8

And what about the compound CN(C)C(=O)CSc1n[nH]c(-c2ccco2)n1 ? -32.9

Another compound: Oc1c(C=Nc2cccc3nsnc23)ccc2ccccc12 -48.9
